Target: T1, huMICA*004 alpha 3-his (human)
T1 construct: whole construct entry: GS, alpha 3 domain, GNS, His8; also called MICA004.His; MICA*004 alpha3 construct
T1 chain: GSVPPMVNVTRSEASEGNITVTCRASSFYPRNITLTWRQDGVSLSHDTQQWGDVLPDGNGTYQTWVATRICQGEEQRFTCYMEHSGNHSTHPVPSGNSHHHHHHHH
Test: SPR, Biacore 8K, antibody on Protein A chip
observedProperty: Kd (nM)
Express the result in nM but write the number alone.

Consider the worked cases shown below.
[[record]]
binder = "1D5v11 (antibody, IgG1, V domains shown, humanized variant of 1D5) VH: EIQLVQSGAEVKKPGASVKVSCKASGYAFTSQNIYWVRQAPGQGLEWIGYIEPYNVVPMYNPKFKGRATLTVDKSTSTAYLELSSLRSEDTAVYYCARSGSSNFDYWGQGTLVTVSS VL: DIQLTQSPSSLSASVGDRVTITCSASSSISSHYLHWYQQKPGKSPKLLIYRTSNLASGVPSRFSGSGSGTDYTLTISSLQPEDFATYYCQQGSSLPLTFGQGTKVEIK"
assayvalue = 0.83

[[record]]
binder = "1D5v6 (antibody, IgG1, V domains shown, humanized variant of 1D5) VH: EVQLVQSGAEVKKPGASVKVSCKASGYAFTSQNIYWVRQAPGQGLEWMGYIEPYNVVPMYNPKFKGRVTMTTDTSTSTAYMELRSLRSDDTAVYYCARSGSSNFDYWGQGTLVTVSS VL: EIVLTQSPDFQSVTPKEKVTITCSASSSISSHYLHWYQQKPDQSPKLLIKRTSNLASGVPSRFSGSGSGTDFTLTINSLEAEDAATYYCQQGSSLPLTFGQGTKVEIK"
assayvalue = 2.91

[[record]]
binder = "1D5v22 (antibody, IgG1, V domains shown, humanized variant of 1D5) VH: EIQLVQSGAEVKKPGASVKVSCKASGYAFTSQNIYWVRQAPGQGLEWIGYIEPYNVVPMYNPKFKGRATLTRDKSTSTAYLELSSLRSEDTAVYYCARSGSSNFDYWGQGTLVTVSS VL: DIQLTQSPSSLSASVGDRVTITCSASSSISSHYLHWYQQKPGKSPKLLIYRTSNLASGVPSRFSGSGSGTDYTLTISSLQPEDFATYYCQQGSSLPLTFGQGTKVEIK"
assayvalue = 5.45


Which Kd is listed for 1D5v2 (antibody, IgG1, V domains shown, humanized variant of 1D5) VH: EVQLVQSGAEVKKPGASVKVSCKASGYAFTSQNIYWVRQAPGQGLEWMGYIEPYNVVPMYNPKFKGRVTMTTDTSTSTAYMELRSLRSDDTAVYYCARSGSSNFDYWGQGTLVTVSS VL: EIVLTQSPDFQSVTPKEKVTITCSASSSISSHYLHWYQQKPDQSPKLLIYRTSNLASGVPSRFSGSGSGTDYTLTINSLEAEDAATYYCQQGSSLPLTFGQGTKVEIK ?
1.34

Then this binder: 15F11v6 (antibody, IgG1, V domains shown, humanized variant of 15F11) VH: EIQLVQSGAEVKKPGSSVKVSCKPSGYAFTSNNIYWVRQAPGQGLEWIGYIDPYIGRIIYNQQFKDRATLTVDKSTSTAYMELSSLRSEDTAVYYCSRSGERSNFDYWGQGTLVTVSS VL: EIVLTQSPATLSLSPGERATLSCSASSSISSNYLHWYQQKPGQSPRLLIYRTSNLASGVPARFSGSGSGTDYTLTISSLEPEDFAVYYCQQGGSLPLTFGQGTKVEIK
2.91

Source listed as patent US20200055939A1.
